Values were extracted from patent US20220370440A1.

# tested-system: EGFR Exon 20 INSNPH Ba/F3 (Homo sapiens, UniProt P00533, DUP771-773, cells depend on it)
# Sequence (P00533 with tags, fused parts or gaps DUP771-773): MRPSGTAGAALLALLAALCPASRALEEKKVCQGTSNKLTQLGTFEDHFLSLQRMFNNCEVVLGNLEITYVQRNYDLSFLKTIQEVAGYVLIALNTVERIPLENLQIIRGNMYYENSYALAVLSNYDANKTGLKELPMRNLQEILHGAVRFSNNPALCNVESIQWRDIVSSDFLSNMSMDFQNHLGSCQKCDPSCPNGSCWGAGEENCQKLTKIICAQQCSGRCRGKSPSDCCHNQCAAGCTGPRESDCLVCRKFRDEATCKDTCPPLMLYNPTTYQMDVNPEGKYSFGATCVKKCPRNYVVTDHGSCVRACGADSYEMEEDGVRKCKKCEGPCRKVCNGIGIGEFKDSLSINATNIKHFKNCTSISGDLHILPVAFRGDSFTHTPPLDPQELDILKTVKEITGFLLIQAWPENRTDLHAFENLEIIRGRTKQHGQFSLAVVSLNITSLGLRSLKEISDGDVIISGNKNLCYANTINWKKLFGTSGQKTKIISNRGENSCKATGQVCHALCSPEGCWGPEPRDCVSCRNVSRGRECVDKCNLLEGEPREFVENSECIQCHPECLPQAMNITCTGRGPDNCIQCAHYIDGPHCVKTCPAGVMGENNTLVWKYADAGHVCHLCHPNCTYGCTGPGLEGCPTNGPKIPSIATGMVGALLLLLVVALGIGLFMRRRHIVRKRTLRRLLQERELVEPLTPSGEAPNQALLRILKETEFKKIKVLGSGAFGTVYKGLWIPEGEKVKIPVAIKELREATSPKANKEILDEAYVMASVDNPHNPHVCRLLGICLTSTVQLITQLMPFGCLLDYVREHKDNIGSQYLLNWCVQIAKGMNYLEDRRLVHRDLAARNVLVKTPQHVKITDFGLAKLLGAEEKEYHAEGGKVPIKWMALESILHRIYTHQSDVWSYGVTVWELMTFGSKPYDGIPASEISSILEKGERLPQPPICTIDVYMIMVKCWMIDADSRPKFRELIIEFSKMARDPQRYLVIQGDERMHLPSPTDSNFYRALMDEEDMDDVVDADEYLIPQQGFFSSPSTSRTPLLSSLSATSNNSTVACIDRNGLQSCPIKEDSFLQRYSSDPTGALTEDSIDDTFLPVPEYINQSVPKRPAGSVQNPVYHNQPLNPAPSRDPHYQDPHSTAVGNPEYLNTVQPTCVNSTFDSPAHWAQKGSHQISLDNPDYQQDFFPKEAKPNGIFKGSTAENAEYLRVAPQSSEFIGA
# assay-explanation: EGFR Exon 20 INSNPH Ba/F3 CellTiter-Glo
# Format: cell-based
# details: CellTiter-Glo, 72 h, read-out: EGFR Exon 20 INSNPH Ba/F3 CTG IC50
Attribute: GI50
assay-endpoint: GI50

1) C=CC(=O)Nc1cc(-c2c(-c3ccnc(N4CCN(C)CC4)c3)[nH]c3ncc(C(=O)OC(C)C)cc23)cc(F)c1C :: 100 to 500 nM
2) C=CC(=O)Nc1cc(-c2c(-c3ccc(CN4CCN(C)CC4)cc3)[nH]c3ncc(C(=O)OC(C)C)cc23)ccc1C :: 100 to 500 nM
3) C=CC(=O)Nc1cc(-c2c(-c3ccc(CCN(C)C)cc3)[nH]c3nccc(Cl)c23)ccc1C :: 100 to 500 nM
4) C#CC(=O)Nc1cc(-c2c(-c3ccc(N4CCN(C)CC4)cc3)[nH]c3nccc(Cl)c23)ccc1C [Example 144, 2,2,2-trifluoroacetate] :: 1000 to 10000 nM
5) C=CC(=O)Nc1cc(-c2c(-c3ccc(N4CCN(S(=O)(=O)CC)CC4)cc3)[nH]c3nccc(Cl)c23)ccc1C :: 100 to 500 nM
6) C=CC(=O)N1CCOc2ccc(-c3c(-c4ccc(N5CCN(C)CC5)cc4)[nH]c4nccc(Cl)c34)cc21 [Example 83, 2,2,2-trifluoroacetate] :: 100 to 500 nM

====

# tested-system: EGFR T790ML858R (Homo sapiens, UniProt P00533, L858R/T790M)
# Sequence (P00533 25-1210 T790M/L858R): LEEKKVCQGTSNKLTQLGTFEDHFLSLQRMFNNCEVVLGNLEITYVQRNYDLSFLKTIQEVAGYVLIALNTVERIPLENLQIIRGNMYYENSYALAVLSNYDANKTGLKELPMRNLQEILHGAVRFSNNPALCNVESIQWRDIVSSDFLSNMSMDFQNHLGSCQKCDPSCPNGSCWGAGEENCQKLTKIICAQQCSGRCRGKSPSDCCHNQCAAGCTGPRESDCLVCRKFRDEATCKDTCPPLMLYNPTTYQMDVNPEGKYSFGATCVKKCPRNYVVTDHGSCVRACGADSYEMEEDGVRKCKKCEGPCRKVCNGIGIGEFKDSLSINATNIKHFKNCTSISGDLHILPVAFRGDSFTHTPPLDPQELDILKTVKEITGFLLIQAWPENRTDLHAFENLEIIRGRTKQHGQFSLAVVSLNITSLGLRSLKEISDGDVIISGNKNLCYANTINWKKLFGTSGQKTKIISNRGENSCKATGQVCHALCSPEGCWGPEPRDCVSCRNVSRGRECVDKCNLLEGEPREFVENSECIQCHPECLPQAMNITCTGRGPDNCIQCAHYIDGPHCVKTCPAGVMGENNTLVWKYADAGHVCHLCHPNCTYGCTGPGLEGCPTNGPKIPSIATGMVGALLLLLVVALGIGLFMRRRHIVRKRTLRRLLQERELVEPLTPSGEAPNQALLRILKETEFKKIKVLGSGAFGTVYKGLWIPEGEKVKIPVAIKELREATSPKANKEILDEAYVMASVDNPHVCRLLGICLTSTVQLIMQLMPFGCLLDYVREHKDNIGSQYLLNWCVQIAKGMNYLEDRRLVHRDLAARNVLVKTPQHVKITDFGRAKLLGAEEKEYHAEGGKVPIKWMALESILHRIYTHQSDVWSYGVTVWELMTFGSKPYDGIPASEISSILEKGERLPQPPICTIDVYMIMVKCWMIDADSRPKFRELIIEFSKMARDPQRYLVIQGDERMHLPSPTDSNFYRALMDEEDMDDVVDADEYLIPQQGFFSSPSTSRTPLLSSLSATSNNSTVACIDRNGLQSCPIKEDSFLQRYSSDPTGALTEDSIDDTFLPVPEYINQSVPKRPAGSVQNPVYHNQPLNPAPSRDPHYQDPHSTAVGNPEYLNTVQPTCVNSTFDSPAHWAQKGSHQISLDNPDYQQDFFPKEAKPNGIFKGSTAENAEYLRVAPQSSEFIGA
# assay-explanation: EGFR T790ML858R Lance assay
assay-endpoint: IC50

1) C=CC(=O)Nc1cc(-c2c(-c3ccc(N4CCN(C)CC4)cc3)[nH]c3ncc(C(=O)OC4CC4)cc23)ccc1C [Example 138] :: ≤ 100 nM
2) C=CC(=O)N1CCOc2ccc(-c3c(-c4ccc(CN5CCN(C)CC5)cc4)[nH]c4nccc(Cl)c34)cc21 [Example 100] :: ≤ 100 nM
3) C=CC(=O)Nc1cc(-c2c(-c3cccc(CN4CCN(C(C)=O)CC4)c3)[nH]c3ncc(C(=O)OC(C)C)cc23)ccc1C [Example 186] :: 100 to 500 nM
4) C=CC(=O)Nc1cc(-c2c(-c3ccc(N4CCN(C)CC4)cc3)[nH]c3ncc(NC(=O)C(C)C)cc23)ccc1C [Example 200, 2,2,2-trifluoroacetate] :: ≤ 100 nM
5) C=CC(=O)Nc1cc(-c2c(-c3cccc(C(=O)N4CCOCC4)c3)[nH]c3nccc(Cl)c23)ccc1C [Example 27] :: ≤ 100 nM
6) C=CC(=O)Nc1cc(-c2c(-c3cccc(CN(C)C)c3)[nH]c3ncc(C(=O)OC(C)C)cc23)ccc1C [Example 187] :: ≤ 100 nM
7) C=CC(=O)Nc1cc(-c2c(-c3cnc(N4CCN(C)CC4)nc3)[nH]c3ncc(C(=O)OC(C)C)cc23)ccc1C [Example 175] :: 100 to 500 nM

====

# tested-system: EGFR Exon 20 INSNPH Ba/F3 (Homo sapiens, UniProt P00533, DUP771-773, cells depend on it)
# assay-explanation: EGFR Exon 20 INSNPH Ba/F3 CellTiter-Glo
# Type: cell-based
# details: CellTiter-Glo, 72 h, read-out: EGFR Exon 20 INSNPH Ba/F3 CTG IC50
Attribute: GI50
assay-endpoint: GI50

1) C=CC(=O)Nc1cc(-c2c(-c3cccc(CN(C)C)c3)[nH]c3ncc(C(=O)OC(C)C)cc23)ccc1C :: 0.1 to 0.5 µM
2) C=CC(=O)Nc1cc(-c2c(-c3cccc(N4CCN(C)CC4)c3)[nH]c3nccc(Cl)c23)ccc1C :: 0.1 to 0.5 µM
3) C=CC(=O)N1CCc2ccc(-c3c(-c4ccc(N(C)CCN(C)C)cc4)[nH]c4nccc(Cl)c34)cc21 :: 0.5 to 1 µM
4) C=CC(=O)Nc1cc(-c2c(-c3ccc(N4CCN(C(C)=O)CC4)cc3)[nH]c3nccc(OC)c23)ccc1C :: 0.1 to 0.5 µM
5) C=CC(=O)Nc1cc(-c2c(-c3ccc(N4CCN(S(=O)(=O)CC)CC4)cc3)[nH]c3ncc(C(=O)OC(C)C)cc23)ccc1C :: 1 to 10 µM
6) C=CC(=O)N1CCc2ccc(-c3c(-c4ccc(CN5CCN(C)CC5)cc4)[nH]c4nccc(OC)c34)cc21 :: ≤ 0.1 µM
7) C=CC(=O)Nc1cc(-c2c(-c3ccc(N4CCN(C)CC4)cc3)[nH]c3ncc(C(=O)OC4CCC4)cc23)ccc1C :: 0.1 to 0.5 µM

====

# tested-system: HER2 INS YVMA (Homo sapiens, UniProt P04626, INS775YVMA)
# Construct: purchased DPF
# Sequence (P04626 with tags, fused parts or gaps INS775YVMA): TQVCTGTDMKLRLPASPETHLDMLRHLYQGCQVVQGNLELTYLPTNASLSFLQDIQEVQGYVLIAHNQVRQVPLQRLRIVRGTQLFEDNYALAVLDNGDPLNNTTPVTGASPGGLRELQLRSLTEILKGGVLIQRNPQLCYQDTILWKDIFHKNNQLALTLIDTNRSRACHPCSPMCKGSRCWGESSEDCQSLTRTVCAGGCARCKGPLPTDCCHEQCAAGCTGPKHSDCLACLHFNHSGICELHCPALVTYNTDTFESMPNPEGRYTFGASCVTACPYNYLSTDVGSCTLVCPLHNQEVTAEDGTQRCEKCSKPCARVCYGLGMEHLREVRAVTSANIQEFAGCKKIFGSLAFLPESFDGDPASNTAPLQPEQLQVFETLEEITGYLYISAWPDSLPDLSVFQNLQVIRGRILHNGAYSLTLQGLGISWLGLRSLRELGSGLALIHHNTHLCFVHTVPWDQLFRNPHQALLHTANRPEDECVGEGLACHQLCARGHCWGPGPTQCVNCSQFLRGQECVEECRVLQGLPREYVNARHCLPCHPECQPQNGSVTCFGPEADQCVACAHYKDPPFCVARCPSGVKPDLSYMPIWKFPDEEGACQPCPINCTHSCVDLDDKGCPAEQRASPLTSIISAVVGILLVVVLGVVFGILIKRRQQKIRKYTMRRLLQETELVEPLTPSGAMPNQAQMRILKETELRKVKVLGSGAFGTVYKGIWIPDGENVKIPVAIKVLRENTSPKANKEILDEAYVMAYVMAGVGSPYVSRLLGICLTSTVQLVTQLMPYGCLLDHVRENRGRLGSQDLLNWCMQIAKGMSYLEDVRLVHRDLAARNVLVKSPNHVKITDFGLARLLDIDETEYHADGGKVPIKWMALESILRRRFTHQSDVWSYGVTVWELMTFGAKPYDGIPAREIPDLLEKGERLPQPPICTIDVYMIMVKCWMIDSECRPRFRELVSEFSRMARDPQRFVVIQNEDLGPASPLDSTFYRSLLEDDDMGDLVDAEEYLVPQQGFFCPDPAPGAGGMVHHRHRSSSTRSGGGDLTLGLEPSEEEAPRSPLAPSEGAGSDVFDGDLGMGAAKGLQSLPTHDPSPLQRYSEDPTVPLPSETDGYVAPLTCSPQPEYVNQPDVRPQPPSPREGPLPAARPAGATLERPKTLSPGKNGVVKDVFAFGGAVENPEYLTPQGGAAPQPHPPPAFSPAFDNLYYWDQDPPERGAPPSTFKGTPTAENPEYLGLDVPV
# assay-explanation: Lance Kinase Activity Assay, HER2 INS YVMA (Her2 Exon 20 INSYVMA Lance)
# Format: biochemical
# details: biochemical Lance assay
# Description: 1. Measurement of HER2 INS YVMA Kinase Activity This protocol describes how the Lance Kinase Activity Assay was performed to determine IC50 values of compounds of general formula (I) against HER2 INS YVMA. The principle behind this enzymatic assay is based upon the phosphorylation of the Ulight-peptide substrate. It is detected by using a specific EU-labeled anti-phospho peptide antibody. […]
pIC50: −log10 of the molar value.
assay-endpoint: pIC50

1. C=CC(=O)N1CCc2ccc(-c3c(-c4cccc(OCCN5CCCC5)c4)[nH]c4nccc(OCC)c34)cc21 [Example 109] :: ≥ 7.00
2. C=CC(=O)Nc1cc(-c2c(-c3ccc(OCCN(C)C)cc3)[nH]c3nccc(Cl)c23)ccc1C [Example 18] :: ≥ 7.00
3. C=CC(=O)Nc1cc(-c2c(-c3ccc(N4CCN(C)CC4)cc3)[nH]c3ncc(C(=O)OC4CC4)cc23)ccc1C [Example 138] :: ≥ 7.00
4. Cc1ccc(-c2c(-c3ccc(N4CCN(C)CC4)cc3)[nH]c3nccc(Cl)c23)cc1NC(=O)CCl [Example 146, 2,2,2-trifluoroacetate] :: ≥ 7.00
5. C=CC(=O)Nc1cc(-c2c(-c3ccc(N4CCN(C)CC4)cc3)[nH]c3ncc(C(=O)O)cc23)ccc1C [Example 116, 2,2,2-trifluoroacetate] :: ≥ 7.00
6. C=CC(=O)Nc1cc(-c2c(-c3ccc(N4CCN(C)CC4)nc3)[nH]c3nccc(Cl)c23)ccc1C [Example 19] :: 6.30 to 7.00
7. C=CC(=O)NCc1cccc(-c2c(-c3ccc(N4CCN(C)CC4)cc3)[nH]c3ncc(C(=O)OC(C)C)cc23)c1 [Example 203, 2,2,2-trifluoroacetate] :: 5.00 to 6.00

====

# tested-system: HER2 INS YVMA (Homo sapiens, UniProt P04626, INS775YVMA)
# Construct: purchased DPF
# assay-explanation: Lance Kinase Activity Assay, HER2 INS YVMA (Her2 Exon 20 INSYVMA Lance)
# Format: biochemical
# details: biochemical Lance assay
Attribute: IC50
assay-endpoint: IC50

1. C=CC(=O)Nc1cc(-c2c(-c3cccc(CN(C)C)c3)[nH]c3ncc(C(=O)OC(C)C)cc23)ccc1C :: ≤ 100 nM
2. C=CC(=O)Nc1cc(-c2c(-c3ccc(N4CCN(CC)CC4)cc3)[nH]c3nccc(Cl)c23)ccc1C :: ≤ 100 nM
3. C=CC(=O)Nc1cc(-c2c(-c3ccc(OCCCN(C)C)cc3)[nH]c3nccc(Cl)c23)ccc1C :: ≤ 100 nM
4. C=CC(=O)N1CCCc2ccc(-c3c(-c4cccc(CN5CCN(C)CC5)c4)[nH]c4nccc(Cl)c34)cc21 :: ≤ 100 nM
5. C=CC(=O)Nc1cc(-c2c(-c3ccc(N4CCN(C)CC4)cc3)[nH]c3ncc(C(=O)OC(C)C)cc23)cc(F)c1C :: ≤ 100 nM
6. C=CC(=O)Nc1cc(-c2c(-c3cnc(N4CCOCC4)nc3)[nH]c3nccc(Cl)c23)ccc1C :: 500 to 1000 nM
7. C=CC(=O)N1CCc2ccc(-c3c(-c4ccc(N5CCN(C)CC5)c(F)c4)[nH]c4nccc(Cl)c34)cc21 :: ≤ 100 nM
8. C=CC(=O)Nc1cc(-c2c(-c3ccc(N4CCN(C)CC4)cc3)[nH]c3ncc(C(=O)OC4COC4)cc23)ccc1C :: ≤ 100 nM
9. C=CC(=O)N1CCc2ccc(-c3c(-c4ccc(CN5CCN(C)CC5)cc4)[nH]c4nccc(OC)c34)cc21 :: ≤ 100 nM
10. C=CC(=O)Nc1cc(-c2c(-c3ccc(N4CCN(C)CC4)cc3)[nH]c3ncc(C(=O)OC4CCC4)cc23)ccc1C :: ≤ 100 nM
11. C=CC(=O)Nc1cc(-c2c(-c3cccc(C(=O)N4CCN(C)CC4)c3)[nH]c3nccc(Cl)c23)ccc1C [Example 44, 2,2,2-trifluoroacetate] :: 100 to 500 nM
12. C=CC(=O)Nc1cc(-c2c(-c3cccc(OCCCN(C)C)c3)[nH]c3nccc(Cl)c23)ccc1C :: ≤ 100 nM
13. C=CC(=O)Nc1cc(-c2c(-c3ccc(N4CCN(C)CC4)cc3)[nH]c3ncc(C(=O)NCc4ccncc4)cc23)ccc1C :: ≤ 100 nM
14. C=CC(=O)Nc1cc(-c2c(-c3ccc(CN(C)C)cc3)[nH]c3ncc(C(=O)OC(C)C)cc23)cc(F)c1C :: ≤ 100 nM
15. C=CC(=O)N1CCc2ccc(-c3c(-c4cccc(OCCN5CCCC5)c4)[nH]c4nccc(Cl)c34)cc21 :: ≤ 100 nM
16. C=CC(=O)Nc1cc(-c2c(-c3ccc(N4CCN(C(C)=O)CC4)cc3)[nH]c3nccc(OC)c23)ccc1C :: ≤ 100 nM
17. C=CC(=O)N1CCc2ccc(-c3c(-c4ccc(CN(C)C)cc4)[nH]c4nccc(OCC)c34)cc21 :: ≤ 100 nM
18. C=CC(=O)Nc1cc(-c2c(-c3cccc(CN4CCOCC4)c3)[nH]c3ncccc23)ccc1C :: 1000 to 10000 nM
19. C=CC(=O)Nc1cc(-c2c(-c3cccc(OCCN(C)C)c3)[nH]c3nccc(Cl)c23)ccc1C :: ≤ 100 nM
20. Cc1ccc(-c2c(-c3ccc(N4CCN(C)CC4)cc3)[nH]c3ncc(C(=O)OC(C)C)cc23)cc1NC(=O)/C=C/CN(C)C :: ≤ 100 nM
21. C=CC(=O)N1CCOc2ccc(-c3c(-c4ccc(N5CCN(CC)CC5)cc4)[nH]c4nccc(Cl)c34)cc21 :: ≤ 100 nM
22. C=CC(=O)Nc1cc(-c2c(-c3ccc(Cl)c(C(=O)N4CCOCC4)c3)[nH]c3nccc(Cl)c23)ccc1C :: 1000 to 10000 nM
23. C=CC(=O)Nc1cc(-c2c(-c3cccc(CN4CCN(C)CC4)c3)[nH]c3nccc(OC)c23)ccc1C :: ≤ 100 nM
24. C=CC(=O)N1CCCc2ccc(-c3c(-c4ccc(OCCN5CCCC5)cc4)[nH]c4nccc(Cl)c34)cc21 :: ≤ 100 nM
25. C#CC(=O)Nc1cc(-c2c(-c3ccc(N4CCN(C)CC4)cc3)[nH]c3nccc(Cl)c23)ccc1C [Example 144, 2,2,2-trifluoroacetate] :: ≤ 100 nM
26. C=CC(=O)N1CCc2ccc(-c3c(-c4ccc(N5CCN(C)CC5)nc4)[nH]c4nccc(Cl)c34)cc21 :: ≤ 100 nM
27. C=CC(=O)N1CCc2ccc(-c3c(-c4ccc(N5CCN(C)CC5)cc4)[nH]c4nccc(OC)c34)cc21 :: ≤ 100 nM
28. C=CC(=O)Nc1cc(-c2c(-c3ccc(N4CCN(S(=O)(=O)CC)CC4)cc3)[nH]c3ncc(C(=O)OC(C)C)cc23)ccc1C :: 500 to 1000 nM
